- Test Target: SGK1 (Homo sapiens, UniProt O00141)
- Sequence (O00141 whole entry, species assumed): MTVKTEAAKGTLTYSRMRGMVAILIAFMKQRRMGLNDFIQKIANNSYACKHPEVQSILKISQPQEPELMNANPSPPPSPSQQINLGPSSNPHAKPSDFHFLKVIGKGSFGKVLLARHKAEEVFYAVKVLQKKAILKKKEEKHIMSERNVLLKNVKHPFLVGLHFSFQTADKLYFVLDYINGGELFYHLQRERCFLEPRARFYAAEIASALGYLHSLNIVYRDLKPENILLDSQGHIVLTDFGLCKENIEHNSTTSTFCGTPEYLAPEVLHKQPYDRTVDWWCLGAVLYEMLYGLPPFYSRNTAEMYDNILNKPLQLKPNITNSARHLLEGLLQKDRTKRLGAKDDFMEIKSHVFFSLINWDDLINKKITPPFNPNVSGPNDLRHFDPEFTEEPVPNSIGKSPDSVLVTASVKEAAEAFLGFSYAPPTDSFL
- Method: Kinase profiling SGK1
- Type: biochemical
- Experimental Context: 100 micromolar inhibitor concentration; 100 is no change
Measurement Label: residual kinase activity, SGK1
Numbers only.

Dear colleague, could you send me residual kinase activity, SGK1 for each of the items below? Thanks.
1. O=C(Nc1nc2cc(O)ccc2s1)c1ccccn1
2. CC(=O)Nc1cccc(C(=O)Nc2nc3ccc(O)cc3s2)c1
3. CC(=O)NC(C)C(=O)Nc1nc2ccc(C(F)(F)F)cc2s1 (centres unmarked)
4. CC(=O)Nc1ccc(C(=O)Nc2nc3cc(O)ccc3s2)cc1
5. O=C(Nc1nc2ccc(F)cc2s1)c1ccccc1
6. COC(=O)c1cccc(C(=O)Nc2nc3cc(OC)ccc3s2)c1
7. O=C(Nc1nc2cc(O)ccc2s1)c1ccccc1

A:
1. 74
2. 41
3. 55
4. 43
5. 93
6. 83
7. 86

Dear colleague, could you send me residual kinase activity, SGK1 for each of the items below? Thanks.
1. O=C(Nc1nc2ccc(C(F)(F)F)cc2s1)c1ccccc1
2. CC(=O)Nc1nc2ccc(F)cc2s1
3. N#Cc1ccc2nc(NC(=O)c3ccccc3)sc2c1
4. COc1ccc2sc(NC(=O)c3cccc(C(N)=O)c3)nc2c1
5. CC(=O)Nc1cccc(C(=O)Nc2nc3cc(O)ccc3s2)c1

A:
1: 69; 2: 67; 3: 77; 4: 88; 5: 28
